These data points were gathered from patent US12643903B2.

tested_system: EGFR LTC (Homo sapiens, UniProt P00533, C797S/L858R/T790M)
Construct: expressed in transfected cells; host or cells: BaF3
Sequence (P00533 25-1210 T790M/C797S/L858R): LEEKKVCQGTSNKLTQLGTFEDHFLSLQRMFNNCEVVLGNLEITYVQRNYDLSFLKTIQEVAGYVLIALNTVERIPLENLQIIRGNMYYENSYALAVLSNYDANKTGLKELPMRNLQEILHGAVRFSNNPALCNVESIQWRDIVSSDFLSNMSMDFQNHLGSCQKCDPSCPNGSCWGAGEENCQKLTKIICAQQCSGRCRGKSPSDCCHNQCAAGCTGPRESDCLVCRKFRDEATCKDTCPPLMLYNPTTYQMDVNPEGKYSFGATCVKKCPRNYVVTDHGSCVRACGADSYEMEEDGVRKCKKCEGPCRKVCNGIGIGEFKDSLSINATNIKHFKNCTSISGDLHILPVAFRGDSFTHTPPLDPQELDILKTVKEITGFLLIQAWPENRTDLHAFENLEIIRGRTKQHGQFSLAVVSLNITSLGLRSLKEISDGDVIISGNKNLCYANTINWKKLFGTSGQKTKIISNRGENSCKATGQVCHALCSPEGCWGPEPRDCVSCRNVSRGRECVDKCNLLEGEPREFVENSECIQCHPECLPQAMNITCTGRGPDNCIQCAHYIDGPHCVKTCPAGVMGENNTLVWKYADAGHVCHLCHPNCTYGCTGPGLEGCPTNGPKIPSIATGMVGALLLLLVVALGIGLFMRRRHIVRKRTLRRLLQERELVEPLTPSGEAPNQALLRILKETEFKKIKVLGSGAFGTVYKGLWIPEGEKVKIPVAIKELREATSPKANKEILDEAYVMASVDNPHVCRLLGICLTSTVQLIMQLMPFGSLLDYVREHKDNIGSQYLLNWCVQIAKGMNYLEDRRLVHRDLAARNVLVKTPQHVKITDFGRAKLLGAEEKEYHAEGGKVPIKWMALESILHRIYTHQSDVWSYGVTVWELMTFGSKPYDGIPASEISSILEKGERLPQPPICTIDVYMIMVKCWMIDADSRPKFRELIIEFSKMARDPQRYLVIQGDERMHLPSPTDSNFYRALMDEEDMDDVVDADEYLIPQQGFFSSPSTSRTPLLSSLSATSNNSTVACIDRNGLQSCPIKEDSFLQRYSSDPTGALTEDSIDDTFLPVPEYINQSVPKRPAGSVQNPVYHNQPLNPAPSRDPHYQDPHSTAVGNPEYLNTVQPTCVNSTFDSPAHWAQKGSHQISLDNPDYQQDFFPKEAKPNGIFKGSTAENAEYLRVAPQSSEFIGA
assay_method_text: Cell Degradation 3: EGFR degradation in BaF3 cells (LTC), HTRF assay
Assay type: cell-based
condition_description: 16 h treatment, EGFR degradation by HTRF
Recorded DC50 determines the group label, using bottom (below 30 nM), middle (30 nM to below 60 nM), top (60 nM or more)

Example entries and their recorded answers appear below.
[ask] Any idea which band CCc1cc(Nc2ncc(Br)c(Nc3ccc(F)c4c3N(S(C)(=O)=O)CC4)n2)c(OC)cc1N1CCC(N2CCN(C(=O)[C@@H]3CCN(c4cc(F)c([C@H]5CCC(=O)NC5=O)c(F)c4)C3)CC2)CC1 is in?
[reply] bottom

[ask] Any idea which band COc1cc(N2CCC(N3CCN(CCC4CCN(c5ccc6c(c5)C(=O)N(C5CCC(=O)NC5=O)C6=O)CC4)CC3)CC2)ccc1Nc1ncc(Cl)c(Nc2cccc3c2N(S(C)(=O)=O)CC3)n1 (centres unmarked) is in?
[reply] middle

[ask] Any idea which band COc1cc(N2CCC(N3CCN(C4CCN(c5cccc(C6CCC(=O)NC6=O)c5)CC4)CC3)CC2)c(C)cc1Nc1ncc(Br)c(Nc2cccc3c2N(S(C)(=O)=O)CC3)n1 (centres unmarked) is in?
[reply] top

[ask] Any idea which band CCOc1cc(N2CCC(N3CCN(CCc4cc(F)c([C@H]5CCC(=O)NC5=O)c(F)c4)CC3)CC2)c(CC)cc1Nc1ncc(Br)c(Nc2ccc(CC)c3c2N(S(C)(=O)=O)CC3)n1 is in?
[reply] top

[ask] Any idea which band COc1cc(N2CCC(N3CCN(CCc4cc(F)c(C5CCC(=O)NC5=O)cc4F)CC3)CC2)c(C)cc1Nc1ncc(Br)c(Nc2cccc3c2N(S(C)(=O)=O)CC3)n1 (centres unmarked) is in?
[reply] middle

Please examine the following record next.
[ask] Any idea which band COc1cc(N2CCC(N3CCN(CCC4CCN(c5cc(F)c(C6CCC(=O)NC6=O)c(F)c5)CC4)CC3=O)CC2)c(C)cc1Nc1ncc(Br)c(Nc2cccc3c2N(S(C)(=O)=O)CC3)n1 (centres unmarked) is in?
[reply] bottom
